The measurements presented in this section are drawn from patent US20230374147A1.

Biological target: T1, His-tagged cynomolgous macaque BCMA (Acro Biosystems, BCA-C52H7) (cynomolgus macaque, UniProt Q02223 1-54 (human entry))
T1 construct: Bought protein; also called cyno BCMA; CyBCMA; not shown: His tag
Experiment: ELISA, coated Cyno BCMA-His
I'd appreciate it if you could supply EC50 values for the items below.
Give the number; nM is assumed, so skip it.

Query: Looking for the measured EC50 of 1C8-610 hIgG1 (antibody, V domains shown, also called [93]; hu1C8-610) VH: QVQLVQSGAEVKKPGASVKVSCKASGYTFTNYVMFWVKQKPGQGLEWMGYITPYNDGTKYAQKFQGKVTMTSDKSTSTVYMELSSLTSEDTAVYYCARYDYEGSFDYWGQGTLVTVSS VL: DIQMTQSPSSLSASVGDRVTITCRASQDISNYLNWYQQKPGKAPKLLMRYTSRFHSGVPSRFSGSGSGTDFTLTISSLEQEDFATYYCQQGNTFPPTSGGGTKVEIKR , can you help?
Result: 0.089

Query: Please answer likewise for 1C8-403 hIgG1 (antibody, V domains shown, also called [91]; hu1C8-403) VH: QVQLVQSGAEVKKPGASVKVSCKASGYTFTNYVMHWVKQKPGQGLEWMGYILPYNDGTKYAQKFQGKVTMTSDKSTSTVYMELSSLTSEDTAVYYCARYDWEGSFDYWGQGTLVTVSS VL: DIQMTQSPSSLSASVGDRVTITCRASSDISNYLNWYQQKPGKAPKLLMCYTSRLHSGVPSRFSGSGSGTDFTLTISSLEQEDFATYYCQQGNTFPPTFGGGTKVEIKR
Result: 0.016

Query: Same read-out for J6M0 (antibody, V domains shown, also called J6M0-hIgG1; anti-BCMA) VH: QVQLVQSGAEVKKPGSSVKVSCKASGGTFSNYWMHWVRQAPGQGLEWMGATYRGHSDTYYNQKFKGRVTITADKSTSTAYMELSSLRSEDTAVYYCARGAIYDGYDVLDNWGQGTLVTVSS VL: DIQMTQSPSSLSASVGDRVTITCSASQDISNYLNWYQQKPGKAPKLLIYYTSNLHSGVPSRFSGSGSGTDFTLTISSLQPEDFATYYCQQYRKLPWTFGQGTKLEIK ?
Result: 0.015

Query: Input 1C8-507 hIgG1 (antibody, V domains shown, also called [92]; hu1C8-507) VH: QVQLVQSGAEVKKPGASVKVSCKASGYTFRNYVMHWVKQKPGQGLEWMGWILPYNDGTKYAQKFQGKVTMTSDKSTSTVYMELSSLTSEDTAVYYCARYDYEGSFDYWGQGTLVTVSS VL: DIQMTQSPSSLSASVGDRVTITCRASQDISNYLNWYQQKPGKAPKLLMRYTSLLHSGVPSRFSGSGSGTDFTLTISSLEQEDFATYYCQQGNTFPPTFGGGTKVEIKR
Result: 0.038
